pKi: −log10 of the molar value.
Below, pKi values reported for UniProtKB P34969 across several publications.
MEASURED ATTRIBUTE: pKi

Reference set, count: 7
compound=O=c1c2ccccc2ncn1CCCCCN1CCN(c2cccc(Cl)c2)CC1 observed_measurement=7.45
compound=Cn1cc(S(=O)(=O)NC2CCN(CCOc3ccccc3C(C)(C)C)CC2)cn1 observed_measurement=7.08
compound=N#Cc1ccc2[nH]cc(CCCCN3CCN(c4ccc5oc(C(N)=O)cc5c4)CC3)c2c1 observed_measurement=5.41
compound=CCNC(=O)c1cccc(NC2=NC(N)=NC3(CCCCC3)N2)c1 observed_measurement=6.37
compound=CN1CCN(c2nc(N)nc(C(C)(C)Oc3ccccc3Cl)n2)CC1 observed_measurement=5.25
compound=Fc1ccc(N2CCN(CCCc3c[nH]c4ccc(F)cc34)CC2)c(-c2ccoc2)c1 observed_measurement=7.96
compound=COc1ccccc1N1CCN(Cc2ccn(-c3ccccc3C)c2)CC1 observed_measurement=8.37

P: CC(Oc1cc(Cl)ccc1F)c1nc(N)nc(N2CCN(C)CC2)n1 (stereo not given)
Q: O=S(=O)(CCCCN1CCC2CCCCC2C1)c1ccccc1 (racemic)
In: Between P and Q , whose measured pKi reads higher? Let me know the label of the one you choose.
Out: Q
(Q: 7.02, P: 4.92)

----------
pKi: −log10 of the molar value.
Please find below pKi measurements for 5-hydroxytryptamine receptor 7 (Homo sapiens, UniProt P34969), combined from several publications.
MEASURED ATTRIBUTE: pKi

A: NC(=O)N1CCN(c2cccc(Cl)c2)CC1
B: Cl.O=S(=O)(NCCCCN1CCN(c2cccc(Cl)c2)CC1)c1cnc2ccc(Cl)cc2c1
In: // which entry reports the smaller pKi, A or B ? Returns: label corresponding to the selected item.
Out: A

A: CCOC(=O)c1cccc(NC2=NC(N)=NC3(CCCCC3)N2)c1
B: C[C@H](Nc1ncnc(NCCOc2ccccc2)n1)c1ccccc1
C: Cc1ccccc1C(=O)NCC1CCN(CCOc2ccccc2C(C)(C)C)CC1
In: Put these in order: smallest pKi first, largest last. # output: labels, in the requested order
Out: C, A, B
(C: 5.82, A: 6.33, B: 8.52)

----------
Dear all, I have gathered published Ki values for UniProt:P34969; the list follows.
MEASURED ATTRIBUTE: Ki (nM)

Field: example entries. Status: answers known.
molecule="CCC(Oc1cc(Cl)ccc1Cl)c1nc(N)nc(N2CCNCC2)n1 (racemic)" measured_attribute=Ki observed_measurement=3720
molecule=O=C1c2ccccc2S(=O)(=O)N1CCCCN1CCN(c2ncccn2)CC1 measured_attribute=Ki observed_measurement=1410

I: CCOC(=O)[C@H]1CCCN(CCCC(C)(C)S(=O)(=O)c2ccccc2)C1
II: Cc1cc(OCc2nc(N)nc(N3CCN(C)CC3)n2)ccc1Cl
In: Choose between I and II : whose measured Ki value is numerically larger? Let me know the label of the one you choose.
Out: II

A: NC(=O)[C@@H]1CCCN1C(=O)CCCCCN1CCN(c2ccccc2F)CC1
B: CC(C)c1ccccc1OCCN1CCC(NS(=O)(=O)c2cnn(C)c2)CC1
C: CN(C)CCSc1cccc(C2CCCCC2)n1
In: Returns the items ordered by Ki, from maximum to minimum. Labels, requested order.
Out: A, B, C
(A: 3130 nM, B: 19 nM, C: 0.7 nM)

----------
Record set: pKi | UniProt P34969 | literature, multiple sources.
pKi: −log10 of the molar value.
MEASURED ATTRIBUTE: pKi

Take a look at these entries with their results.
molecule="Cc1ccc(COc2ccc(Br)cc2CNC(C)c2ccccc2)cc1 (stereo unspecified)" measured_attribute=pKi observed_measurement=5.43
molecule="O=S(=O)(NCCCN1CCC2CCCCC2C1)c1ccc2ncccc2c1 (stereo unspecified)" measured_attribute=pKi observed_measurement=5.85
molecule="O=S(=O)(NC1CCN(CCOc2ccccc2-c2ccccc2)C1)c1cccs1 (stereo unspecified)" measured_attribute=pKi observed_measurement=8.00
molecule=Cc1ccc(N2CCN(Cc3ccccc3-c3ccccc3)CC2)cc1 measured_attribute=pKi observed_measurement=5.56
molecule=O=C(NC1CCN(CCOc2ccccc2-c2ccccc2)CC1)c1cccc(Cl)c1 measured_attribute=pKi observed_measurement=6.71

1: O=S(=O)(NCCN1CCc2ccccc2C1)c1ccc2ccccc2c1
2: COc1ccc(NC(=O)N2CCN(c3ccccc3Cl)CC2)cc1N1CCN(C)CC1
3: CCC(Oc1cccc(F)c1Cl)c1nc(N)nc(N2CCN(C)CC2)n1 (stereo unspecified)
4: O=C(CCCCCN1CCN(c2ccccc2-c2ccccc2)CC1)NCc1ccc(OCCCN2CCOCC2)cc1
5: Cc1cccc(C)c1-c1cccc(OCCN(C)C)n1
In: Please list these molecules in decreasing order of pKi. // ordering of labels required in reply
Out: 4, 1, 2, 5, 3
(4: 8.02, 1: 7.11, 2: 6.47, 5: 5.79, 3: 5.06)

1: Cc1ccc(-c2cccc(N3CCNCC3)c2)cc1C
2: COc1ccc(OC)c(C2CCN(Cc3cnn(-c4ccccc4F)c3C)C2)c1 (stereo unspecified)
In: Which value of pKi is smaller, the one for 1 or the one for 2 ? Returns: label corresponding to the selected item.
Out: 1
(1: 7.03, 2: 7.82)

----------
# Ki against 5-hydroxytryptamine receptor 7 (Homo sapiens, UniProt P34969), merged from multiple literature sources
# Sequence (P34969 whole entry): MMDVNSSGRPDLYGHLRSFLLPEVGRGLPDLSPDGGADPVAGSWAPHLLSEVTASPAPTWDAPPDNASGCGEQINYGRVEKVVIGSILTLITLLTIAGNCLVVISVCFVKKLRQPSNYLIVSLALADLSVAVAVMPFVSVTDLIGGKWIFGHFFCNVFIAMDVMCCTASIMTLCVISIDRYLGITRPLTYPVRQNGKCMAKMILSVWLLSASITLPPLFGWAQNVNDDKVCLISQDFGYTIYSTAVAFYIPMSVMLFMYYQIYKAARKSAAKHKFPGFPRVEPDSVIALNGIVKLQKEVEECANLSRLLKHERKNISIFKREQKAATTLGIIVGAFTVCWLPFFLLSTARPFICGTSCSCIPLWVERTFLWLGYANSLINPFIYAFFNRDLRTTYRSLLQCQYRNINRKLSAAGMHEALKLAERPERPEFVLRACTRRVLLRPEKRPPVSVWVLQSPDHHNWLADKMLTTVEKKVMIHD
MEASURED ATTRIBUTE: Ki (nM)

molecule=Cc1cc(Cl)ccc1OCc1nc(N)nc(N2CCN(C)CC2)n1 study_target="5-hydroxytryptamine receptor 7 (Homo sapiens, UniProt P34969)" unit_string=nM observed_measurement=15200
molecule=C[C@@H]1NC(NCC(F)F)=Nc2ccc(Cl)c(Cl)c21 study_target="5-hydroxytryptamine receptor 7 (Homo sapiens, UniProt P34969)" unit_string=nM observed_measurement=7.7
molecule=CCN(CCCCN1CCN(c2ccccc2OC)CC1)S(=O)(=O)c1cnc2ccccc2c1 study_target="5-hydroxytryptamine receptor 7 (Homo sapiens, UniProt P34969)" unit_string=nM observed_measurement=38
molecule="CC(Oc1cc(C(F)(F)F)ccc1F)c1nc(N)nc(N2CCN(C)CC2)n1 (stereo unspecified)" study_target="5-hydroxytryptamine receptor 7 (Homo sapiens, UniProt P34969)" unit_string=nM observed_measurement=17100

A: CN1CCN(c2nc(N)nc(CCCOc3cc(Cl)ccc3Cl)n2)CC1
B: Nc1ccc(N2CCN(CCC(=O)c3csc4ccccc34)CC2)cc1
In: // returns A or B , whichever has the lower Ki Write the label of whichever entry you select.
Out: A

I: Cc1ccc2c(OCCN3CCC(Cc4ccc5c(c4F)NC(=O)CO5)CC3)cc(Cl)cc2n1
II: C[C@@H]1[C@@H](O)[C@@H](O)[C@@]2(n3cc(-c4ccccc4)c4c(Nc5ccccc5)ncnc43)C[C@@H]12
In: Input pair: I , II . Output: entry with lower Ki. Please identify the chosen entry by its label.
Out: I

I: O=S(=O)(c1cncc2ccccc12)N1CCC(CCN2CCN(c3ccc(F)cc3)CC2)CC1
II: CC(Sc1ccc(Cl)c(Cl)c1)c1nc(N)nc(N2CCN(C)CC2)n1 (racemic)
In: Could you please tell me which of these two has the higher Ki: I or II ? Kindly state the label of the option you pick.
Out: II
(II: 2870 nM, I: 14 nM)

1: O=S(=O)(NCCN1CCc2ccccc2C1)c1ccccc1
2: CC(C)c1ccccc1OCC(C)N1CCC(NS(=O)(=O)c2cccc(F)c2)CC1 (stereo unspecified)
3: CN(C)C[C@H]1CC2c3ccccc3Sc3ccc(F)cc3[C@H]2O1 (stereo in doubt; (-)-8d)
4: COc1ccccc1N1CCN(Cc2ccc(C(=O)N3CCC[C@H]3C(N)=O)cc2)CC1
5: O=S(=O)(N[C@@H]1CCN(CCCc2noc3cc(F)ccc23)C1)c1ccc(F)c(Cl)c1
In: Falling order of Ki, please. List the labels in the requested order.
Out: 4, 1, 2, 3, 5

a: COc1ccccc1N1CCN(CCC(=O)NCc2ccccc2-c2ccccc2)CC1
b: COc1ccccc1N1CCN(CCCCC(=O)N2CCC[C@H]2C(N)=O)CC1
c: O=S(=O)(NC1CCN(CCOc2ccccc2-c2ccccc2)C1)c1cc(F)ccc1F (stereo unspecified)
d: CCC1(CCCCN2CCN(c3cccc(C(F)(F)F)c3)CC2)C(=O)Nc2ccccc21 (stereo unspecified)
e: COc1ccccc1N1CCN(CCCCC(=O)NCc2ccccc2-c2cccc(Cl)c2)CC1
In: Number of molecules to sort: 5. Sort criterion: Ki, ascending. Form entry: ranked labels (order as requested).
Out: d, c, a, e, b

a: COc1ccc(-n2c(=O)n(CCN3CCN(c4ccccc4OC)CC3)c3ccccc32)cc1
b: COc1ccc2c(=O)c3cc(CN4CCN(c5ccccc5OC)CC4)ccc3oc2c1.Cl
In: Which entry has a larger number for Ki, a or b ? Respond using the label that marks the chosen record.
Out: b

a: CSc1ccc(CC2NCCc3c2[nH]c2ccccc32)cc1 (stereo unspecified)
b: O=C1Nc2ccccc2C12CCN(CCCN1CCN(c3ccc(Cl)cc3)CC1)C2 (stereo unspecified)
c: Cc1cccc(OCc2nc(N)nc(N3CCN(C)CC3)n2)c1
In: Thanks in advance: please rank these 3 entries by Ki, highest to lowest. Give your ranking as a list of the labels in the requested order.
Out: c, a, b
(c: 10700 nM, a: 170 nM, b: 67 nM)

I: COc1cc2c(cc1OC)CN(/C=N/c1ccc3c(c1)C1SCCSC1C3)CC2 (stereo unspecified)
II: CC(C)c1cccc(C(C)C)c1OCCN1CCC(NS(=O)(=O)c2ccc(F)cc2)CC1
In: Please state the entry with greater Ki among I and II . Identify your selection by its label.
Out: II
(II: 1920 nM, I: 200 nM)

P: O=S(=O)(c1cccc2ncccc12)N1CCC(CCN2CCN(c3ccc(F)cc3)CC2)CC1
Q: CCC(Oc1cc(F)ccc1F)c1nc(N)nc(N2CCN(C)CC2)n1 (stereo unspecified)
In: Hi there, can you help? I need to know whether P or Q has lower measured Ki. Return value: the label identifying the chosen record.
Out: P
(P: 29 nM, Q: 11500 nM)
